# Tested system: MERTK (UniProt Q12866)
# Sequence (Q12866 whole entry, looked up): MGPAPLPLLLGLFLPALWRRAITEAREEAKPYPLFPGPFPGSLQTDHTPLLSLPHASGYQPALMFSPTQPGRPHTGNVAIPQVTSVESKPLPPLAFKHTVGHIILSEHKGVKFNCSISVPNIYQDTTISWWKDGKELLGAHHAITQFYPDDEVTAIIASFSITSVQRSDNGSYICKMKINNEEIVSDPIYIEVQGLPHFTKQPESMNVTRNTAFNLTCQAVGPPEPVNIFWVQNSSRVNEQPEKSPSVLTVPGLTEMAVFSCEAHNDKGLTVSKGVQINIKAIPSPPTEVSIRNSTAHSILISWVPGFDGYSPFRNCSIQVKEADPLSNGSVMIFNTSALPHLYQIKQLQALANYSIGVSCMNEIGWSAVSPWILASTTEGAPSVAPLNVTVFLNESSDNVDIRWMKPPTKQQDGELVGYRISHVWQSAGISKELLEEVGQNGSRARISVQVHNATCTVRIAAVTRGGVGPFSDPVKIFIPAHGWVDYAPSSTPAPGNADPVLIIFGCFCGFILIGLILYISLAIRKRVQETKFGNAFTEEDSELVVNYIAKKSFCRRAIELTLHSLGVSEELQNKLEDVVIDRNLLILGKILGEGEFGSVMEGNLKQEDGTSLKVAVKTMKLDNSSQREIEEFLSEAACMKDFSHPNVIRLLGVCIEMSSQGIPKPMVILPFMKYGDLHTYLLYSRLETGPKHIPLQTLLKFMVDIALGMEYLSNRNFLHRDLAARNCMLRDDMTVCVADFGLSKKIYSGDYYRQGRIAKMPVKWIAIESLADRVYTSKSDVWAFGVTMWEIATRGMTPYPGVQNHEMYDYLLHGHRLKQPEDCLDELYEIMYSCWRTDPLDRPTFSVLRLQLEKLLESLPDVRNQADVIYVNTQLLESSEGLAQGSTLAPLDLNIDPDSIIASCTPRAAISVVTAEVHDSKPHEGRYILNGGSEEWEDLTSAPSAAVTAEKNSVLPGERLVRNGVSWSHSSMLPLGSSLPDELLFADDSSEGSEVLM
# Method notes: phosphorylation enrichment, bacterial display (enrichment ratio); higher = better substrate or ligand; peptides without Tyr show the background
Recorded phosphorylation enrichment for the following sequences
Recorded metric: phosphorylation enrichment

1) SNPAYYVLEGV [INPPL1_Y987_N982S] = 7.46
2) GGQEDYDRLRP [RAC3_Y64_A59G] = 0.461
3) HYGNNYRDVLQ [MACC1_Y803] = 0.612
4) CQAHGYSCQLI [STK11_Y156_F157S] = 0.47
5) RNFVHYVQGLK [VWF_Y1400_R1399H] = 0.544
6) LNLDTYQKRLR [PLA2G2D_Y126_R121L] = 0.511
7) WAMLAYNRSKL [WWOX_Y293] = 0.37
8) NSNSDYVDVLP [SH2D1B_Y127] = 0.54
9) LLKMMYLMLDN [STAT1_Y203_K201M] = 0.597
10) RFLRGYRQFAF [HLA-A_Y137_D140Y_YF] = 0.587
11) PTTKTYFLHFD [HBA1_Y43_P45L] = 0.844
12) AFQGKYTPSGQ [ALDOA_Y343_C339Y_YF] = 0.346
13) GGMAEYTRLHN [EHHADH_Y4] = 0.378
14) VVLEDYLDIKN [CLCNKB_Y138] = 0.464

====

# Tested system: SHP2-C SH2
# Method notes: SH2 binding enrichment of the phosphorylated peptide, bacterial display (enrichment ratio); higher = better substrate or ligand; peptides without Tyr show the background
Recorded metric: SH2 binding enrichment

1. ISMAGYSIPEL [EDAR_Y406_T403M] = 0.861
2. FQQLFYLLQIN [IQGAP2_Y890_T894I_YF] = 1.1
3. STEEQYRIRQV [EFHC1_Y115] = 0.738
4. KRFRIYHLAIS [BRCA2_Y3009_T3013I_YF] = 1.43
5. IIGNGYYFHVF [MYBPC3_Y1135_R1138H] = 0.81
6. FGDTPYIPFRD [CDC14C_Y132] = 0.757
7. MNLLGYRQVRS [CHST4_Y359_H361Q] = 0.481
8. GGFTCYCDGKK [PROS1_Y266_YF] = 0.591
9. STGSRYQPLAS [NCAPD2_Y1325] = 0.651
10. GKTQQYECKWY [BCR_Y751_D752E] = 0.584
11. EIKLAYRRRPP [GRIN2B_Y1109_E1106K] = 0.525
12. GASWRYGSGVS [NEU1_Y242] = 0.721
13. SPGGDYAAMGA [ERBB3_Y1276_G1271S] = 0.487
14. GLTSTYAGIRK [ROBO1_Y932] = 14.7
15. KDHPDYKYQPR [SOX10_Y171] = 0.77
16. LDFNEYVRDLN [HPRT1_Y198_F199V_YF] = 0.795
17. LEYNEYFRDLN [HPRT1_Y198_D194E] = 0.592
18. PATYTYDEYKK [COL8A2_Y648] = 0.799
19. PSTFRYERGSR [INPPL1_Y663_P659S_YF] = 0.879
20. SHSMRYFYTAV [HLA-C_Y31_D33Y] = 1.97
21. EFDRLYEEFTR [PIK3R1_Y467_YF] = 1.05
22. CEHRGYLYLAI [TEK_Y897] = 0.761
23. PSNTEYPGPHS [TP63_Y171_D170E] = 0.362
24. CTTIHKNFMCN [TP53_Y234_Y234K_YF] = 0.795
25. LTERGYSFTTK [ACTG1_Y198_T203K] = 0.653
26. RLFARYFQGDL [PDK3_Y337_YF] = 0.454
27. FCRIMYDIFPF [INTS13_Y67_YF] = 0.862
28. WCKPPYFSCAV [MMS22L_Y28] = 1.18
29. SDPIIYTLENV [ADGRE1_Y534_I539V] = 0.682

====

Recorded phosphorylation enrichment for the following sequences
# Tested system: Hck (UniProt P08631)
# Sequence (P08631 whole entry, looked up): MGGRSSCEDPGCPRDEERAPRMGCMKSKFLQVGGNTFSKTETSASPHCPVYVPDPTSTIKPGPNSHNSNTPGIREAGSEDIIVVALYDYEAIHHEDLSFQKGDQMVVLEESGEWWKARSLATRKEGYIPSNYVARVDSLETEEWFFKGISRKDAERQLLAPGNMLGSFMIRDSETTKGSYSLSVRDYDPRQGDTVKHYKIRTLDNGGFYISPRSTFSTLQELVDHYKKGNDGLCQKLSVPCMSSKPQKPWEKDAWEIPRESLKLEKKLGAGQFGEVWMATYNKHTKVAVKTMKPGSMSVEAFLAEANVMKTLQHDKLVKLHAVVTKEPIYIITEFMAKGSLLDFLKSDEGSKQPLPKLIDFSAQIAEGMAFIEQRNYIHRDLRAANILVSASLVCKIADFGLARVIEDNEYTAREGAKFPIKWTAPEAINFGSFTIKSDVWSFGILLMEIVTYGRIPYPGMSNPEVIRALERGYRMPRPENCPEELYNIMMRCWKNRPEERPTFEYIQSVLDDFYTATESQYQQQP
# Method notes: phosphorylation enrichment, bacterial display (enrichment ratio); higher = better substrate or ligand; peptides without Tyr show the background
Recorded metric: phosphorylation enrichment

1. VFLGAYDCFLP [SLC22A5_Y486_R488C_YF] = 3.27
2. MGSYNYLGFAR [SPTLC2_Y178] = 2.99
3. CTTFHYNYMCN [TP53_Y234_I232F] = 0.514
4. TLRETYGEMAD [ALB_Y108] = 0.555
5. IIGNGYYFHVF [MYBPC3_Y1135_R1138H] = 0.396
6. LEAVSYSSRYA [RNLS_Y190] = 0.437
7. PADQAYSWFQH [NDST1_Y711_R709Q_YF] = 1.36
8. ISMAGYSIPEL [EDAR_Y406_T403M] = 0.437
9. GDYYCYLAEVA [YWHAG_Y133_R132C] = 4.66
10. CTTIRYNFMCN [TP53_Y234_H233R_YF] = 0.435
11. AVISVYDLVAV [PSEN1_Y256] = 6.2
12. GFRPVYSEDEQ [CHST6_Y362_YF] = 0.615
13. RSIGEYDVLRG [PRKDC_Y2936] = 3.99
14. KKLAEYGPQGK [CLCA1_Y147_R152K] = 0.401

====

# Tested system: Grb2 SH2 (UniProt P62993)
# Sequence (P62993 whole entry, looked up): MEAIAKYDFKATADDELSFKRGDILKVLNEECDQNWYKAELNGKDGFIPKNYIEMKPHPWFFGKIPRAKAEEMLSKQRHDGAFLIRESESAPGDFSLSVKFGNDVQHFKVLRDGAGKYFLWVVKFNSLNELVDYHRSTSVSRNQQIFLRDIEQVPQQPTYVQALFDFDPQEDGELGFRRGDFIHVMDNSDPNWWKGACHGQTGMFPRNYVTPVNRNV
# Method notes: SH2 binding enrichment of the phosphorylated peptide, bacterial display (enrichment ratio); higher = better substrate or ligand; peptides without Tyr show the background
Recorded metric: SH2 binding enrichment

1. LHQSTYQCFDV [SLC7A14_Y693_R695C_YF] = 0.688
2. RILDVYIFLGP [GAA_Y340_G335R] = 0.746
3. AEFGLYRAMVR [VSX2_Y222_G223R_YF] = 0.89
4. TNEYEYDELIV [TGM1_Y136_D132N] = 0.798
5. ANLAKYGNPNE [BCHE_Y505_F502L] = 0.645
6. IMAYFYMCDRA [CASD1_Y382] = 1.14
7. PVRIAYDRPRG [SUGP2_Y985] = 0.641
8. FQLENCCNGGG [INS_Y108_Y108C_YF] = 0.772
9. KLFIEYPTGSG [IRF2BPL_Y423] = 0.82
10. HSDYQYSQRSQ [PKP2_Y168] = 0.91
11. AKKVFYVNETR [SHH_Y253_I255N] = 4.17
12. DKVFTYIFIME [SCN4A_Y1074] = 0.813
13. SGDDGYAKDAQ [TENM4_Y1530_K1535Q] = 0.979
14. CTNELYMMMRD [FGFR1_Y730] = 0.633

====

# Tested system: c-Src SH2
# Method notes: SH2 binding enrichment of the phosphorylated peptide, bacterial display (enrichment ratio); higher = better substrate or ligand; peptides without Tyr show the background
Recorded metric: SH2 binding enrichment

1) SPFAVYRFFTF [RPGRIP1_Y826_YF] = 0.462
2) PLQKTYNHNVL [SLC4A1_Y553_Y555H] = 0.659
3) SWKRRYFLLRA [APBB1IP_Y331] = 0.394
4) AAILGYCRGEA [XPC_Y669] = 0.57
5) RHFTTYDTNGR [CLCA1_Y665_Y661H] = 0.494
6) YADGVYLALEE [DUOX2_Y70_Q71L] = 0.869
7) DTNIAYCLHPR [POMT1_Y581_W582C] = 0.609
8) YENGEYIIRQG [PRKG1_Y247] = 9.41
9) EPSVPYRGMVF [GLI3_Y104_T107M] = 0.414
10) LYEDRYLLGPS [ASS1_Y87_T91P] = 0.626
11) QEGPEYWDRET [HLA-A_Y83_Q86R] = 0.533
12) FSLIHYAGIVV [MYH7_Y582_D587V] = 0.689
13) AHLTEYLSTHF [UQCRC1_Y219_D215H_YF] = 0.412
14) KLNNEYLELNY [MME_Y497] = 0.553

====

Recorded phosphorylation enrichment for the following sequences
# Tested system: Jak2 (UniProt O60674)
# Sequence (O60674 whole entry, looked up): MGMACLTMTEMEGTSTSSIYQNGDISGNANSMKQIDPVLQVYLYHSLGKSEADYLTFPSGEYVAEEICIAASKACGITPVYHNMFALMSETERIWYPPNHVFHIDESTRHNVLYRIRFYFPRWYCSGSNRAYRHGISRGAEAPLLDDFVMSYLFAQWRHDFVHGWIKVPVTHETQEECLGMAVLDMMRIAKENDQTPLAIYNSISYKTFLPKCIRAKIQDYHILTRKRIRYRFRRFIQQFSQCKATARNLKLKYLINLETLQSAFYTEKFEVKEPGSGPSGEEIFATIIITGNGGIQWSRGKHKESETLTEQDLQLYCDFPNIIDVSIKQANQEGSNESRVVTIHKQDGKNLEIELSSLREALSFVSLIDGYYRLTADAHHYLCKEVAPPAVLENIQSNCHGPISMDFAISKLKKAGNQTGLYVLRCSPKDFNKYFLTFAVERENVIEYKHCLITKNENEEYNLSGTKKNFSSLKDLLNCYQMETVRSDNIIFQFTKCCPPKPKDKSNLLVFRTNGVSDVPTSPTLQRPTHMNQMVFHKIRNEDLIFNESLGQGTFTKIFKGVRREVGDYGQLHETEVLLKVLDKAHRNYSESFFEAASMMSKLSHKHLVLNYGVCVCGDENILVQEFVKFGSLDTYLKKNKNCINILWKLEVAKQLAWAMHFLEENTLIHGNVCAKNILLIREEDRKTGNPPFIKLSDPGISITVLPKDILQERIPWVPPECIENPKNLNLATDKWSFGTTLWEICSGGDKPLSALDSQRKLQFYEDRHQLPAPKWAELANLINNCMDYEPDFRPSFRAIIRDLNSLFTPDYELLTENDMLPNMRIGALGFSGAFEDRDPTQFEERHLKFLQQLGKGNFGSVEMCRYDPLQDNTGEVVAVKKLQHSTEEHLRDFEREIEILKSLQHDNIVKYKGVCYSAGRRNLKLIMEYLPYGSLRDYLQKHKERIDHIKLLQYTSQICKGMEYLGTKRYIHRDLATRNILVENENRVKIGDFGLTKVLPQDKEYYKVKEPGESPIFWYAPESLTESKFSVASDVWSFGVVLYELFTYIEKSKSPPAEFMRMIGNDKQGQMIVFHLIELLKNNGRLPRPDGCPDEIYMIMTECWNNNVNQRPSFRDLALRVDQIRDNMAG
# Method notes: phosphorylation enrichment, bacterial display (enrichment ratio); higher = better substrate or ligand; peptides without Tyr show the background
Recorded metric: phosphorylation enrichment

1) SMVVPYEPPEV [TP53_Y220_V216M] = 1.3
2) SWKRRYFLLRA [APBB1IP_Y331] = 0.609
3) YADGVYLALEE [DUOX2_Y70_Q71L] = 1.39
4) QLCVSYPGGFT [PROS1_Y259_N258S_YF] = 1.45
5) HSDYQYSQRSQ [PKP2_Y168] = 1.11
6) CTLLPYFSAPV [DGKE_Y269_R273P_YF] = 1.19
7) HSHTRYERNIE [F2_Y434_R431H] = 0.47

Data origin, for the record: the supplement of paper PMC10065799
